assay: photoluminescence quantum yield (fraction); solvent given as SMILES; conditions: in O
measured-attribute: photoluminescence quantum yield
Answers are plain numbers.

Answered cases to consult:
chemical-string	reading
N#Cc1nc2cnc(N)nc2n1Cc1ccccc1	0.88
CC[N+]1(CC)CN2C(=N1)C(C(=O)O)=Cc1cc(Oc3ccccc3)ccc12	0.592

Proceeding to the next compound to report its photoluminescence quantum yield.
Exercise: Record request: photoluminescence quantum yield value, item [C-]#[N+]c1ccc(-c2ccc(NC)cc2)cc1
Key: 0.0087

----------
experiment: photoluminescence quantum yield (fraction); solvent given as SMILES; conditions: in ClCCl
Recorded photoluminescence quantum yield determines the group label, using lower range = under 0.5, middle range = from 0.5 up to 0.7, upper range = 0.7 and over

Previously resolved entries follow.
chemical-string	assigned-label
CN(C)c1ccc2nc(/C=C/c3cc4c5c(c3)CCCN5CCC4)c(=O)oc2c1	lower range
CC[N+](CC)=c1ccc2cc3c(oc-2c1)-c1ccc(N(C)C)cc1CC3	upper range
CC(C)(C)c1ccc2c3ccccc3c3cncnc3c2c1	lower range
CC(C)(C)c1ccc2c(c1)c1cc(C(C)(C)C)ccc1n2-c1ccc(N(c2ccc(-c3ccc(-c4ccc(-c5ccc(-c6ccc(N(c7ccc(-n8c9ccc(C(C)(C)C)cc9c9cc(C(C)(C)C)ccc98)cc7)c7ccc(-n8c9ccc(C(C)(C)C)cc9c9cc(C(C)(C)C)ccc98)cc7)cc6)cc5)c5nsnc45)cc3)cc2)c2ccc(-n3c4ccc(C(C)(C)C)cc4c4cc(C(C)(C)C)ccc43)cc2)cc1	lower range
COC(=O)c1cc(=O)n(C)c2cc(-c3cccc(N(C)C)c3)sc12	lower range
Cn1c2ccccc2c2cc(/C=C/C3=[O+][B-](F)(F)OC(/C=C/c4ccc5c(c4)c4ccccc4n5C)=C3c3ccccc3)ccc21	middle range

Exercise: Sort Cc1cc(-c2cccc3ccccc23)cc(C)[o+]1 into one of the categories.
Key: lower range

Exercise: The entry to classify is CCCCn1c(-c2ccc(-c3nnc(-c4cccs4)o3)cc2)nc2c3ccccc3c3ccccc3c21 ; which class holds it?
Key: middle range

Exercise: Bin? COc1ccc(C#Cc2nc(C#Cc3ccc(OC)cc3)c(C#Cc3ccc(OC)cc3)c(C#Cc3ccc(OC)cc3)c2C#Cc2ccc(OC)cc2)cc1
Key: upper range

Exercise: Please report the category associated with Cc1ccc(-c2cc(/C=C/c3ccc(N(c4ccccc4)c4ccccc4)cc3)c(-c3ccc(C)cc3)cc2/C=C/c2ccc(N(c3ccccc3)c3ccccc3)cc2)cc1 , nothing else.
Key: upper range

Exercise: Hi, small favor: classify COC(=O)c1nc2c(N)nc(N(C)C)nc2n1Cc1ccccc1 by its photoluminescence quantum yield when you get a moment.
Key: upper range

Exercise: Just checking, what class would you give Oc1ccc(-c2ccco2)cc1-c1nc2ccccc2s1 here?
Key: lower range

Exercise: Quick check: band for COc1ccc2cc(C3=[N+]4C(=Nc5c(-c6ccccc6)cc(-c6ccc7cc(OC)ccc7c6)n5[B-]4(F)F)C(c4ccccc4)=C3)ccc2c1
Key: lower range

Exercise: Lab note: sort CCN(CC)c1ccc2cc(C#N)c(=N)oc2c1 into the matching photoluminescence quantum yield band.
Key: upper range

Exercise: Which photoluminescence quantum yield category applies to CC(C)(C)c1ccc2c(c1)c1cc(C(C)(C)C)ccc1n2-c1ccc(-c2ccc3c(c2)C2(c4cc(-c5ccc(-n6c7ccc(C(C)(C)C)cc7c7cc(C(C)(C)C)ccc76)cc5)ccc4-3)c3ccccc3S(=O)(=O)c3ccccc32)cc1 here?
Key: upper range

Exercise: Which class holds CCCCCCCCOc1ccc(C2=C3C(C)=C(C#Cc4ccc(B(c5c(C)cc(C)cc5C)c5c(C)cc(C)cc5C)cc4)C(C)=[N+]3[B-](F)(F)n3c(C)c(C#Cc4ccc(B(c5c(C)cc(C)cc5C)c5c(C)cc(C)cc5C)cc4)c(C)c32)cc1 ?
Key: middle range

----------
Consider the following compounds; for each one, report its photoluminescence quantum yield.
experiment: photoluminescence quantum yield (fraction); solvent given as SMILES; details: in ClCCl
Numbers only.

Example results:
compound	photoluminescence quantum yield
c1ccc(C2=C(c3ccccc3)c3cccc4c3c(cc3nc5ccccc5nc34)O2)cc1	0.54
CC1=C2C=CC(c3ccccc3)=[N+]2[B-](F)(F)n2c1ccc2-c1ccccc1	0.64
CCn1c2ccsc2c2c3nsnc3c3c4sccc4n(CC)c3c21	0.33

Hi there! I need photoluminescence quantum yield for each item below, if you can.
1. C(=C\c1ncccn1)/c1ccc(-c2ccc(N(c3ccccc3)c3ccccc3)cc2)cc1
2. COC(=O)C(Cc1ccc2oc(-c3ccc4c(c3)c3ccccc3n4-c3ccccc3)nc2c1)NC(=O)OC(C)(C)C (stereo not given)

Key:
[0.6, 0.94]

Below are 4 compounds. Give each one its photoluminescence quantum yield.
1. CC[N+](CC)=c1ccc2c(-c3ccccc3C(=O)O)c3oc4cc(N)ccc4c3oc-2c1
2. CCCCCCN(CCCCCC)c1ccc(C#Cc2ccc(C#N)cc2)cc1
3. N#C/C(=C(/C#N)c1ccc(-c2ccncc2)cc1)c1ccc(-c2ccncc2)cc1
4. CCN(CC)c1ccc2cc(-c3nc4ccccc4n3-c3ccccc3)c(=O)oc2c1

Key:
1. 0.726
2. 0.37
3. 0.002
4. 0.94

Give one value of photoluminescence quantum yield per listed compound.
1. CCN(CC)c1ccc2cc(/C=C/C(=O)c3cc4ccc(N(CC)CC)cc4oc3=O)c(=O)oc2c1
2. N#C/C(=C/Nc1ccc(C#N)cc1)c1nc(-c2ccccc2)cs1
3. Clc1ccc(-c2cccc3ncc(-c4ccccc4)n23)cc1
4. CCCSc1ccc2n1[B-](F)(F)[N+]1=C(SC#N)C=CC1=C2c1ccccc1
5. CN(C)c1ccc(C2=Nc3scc(-c4ccc(C#N)cc4)[n+]3[B-](F)(F)O2)cc1

Key:
1. 0.59
2. 0.0001
3. 0.42
4. 0.27
5. 0.61

----------
assay: photoluminescence quantum yield (fraction); solvent given as SMILES; conditions: in O
So I've got a bunch of compounds here, and I need their photoluminescence quantum yield values.
One number for each entry.

chemical-string	photoluminescence quantum yield
c1ccc(-c2nc3c(ccc4[nH]ccc43)o2)cc1	0.54
O=Cc1ccc(-c2ccc(-c3nc4ccccc4s3)c(O)c2)s1	0.07

Exercise: Please report the recorded photoluminescence quantum yield for CN(C)c1ccc(/C=C/C=N/N=C/c2ccc3ccc4cccc5ccc2c3c45)cc1 .
Key: 0.016

----------
experiment: photoluminescence quantum yield (fraction); solvent given as SMILES; details: in CCO
Note to self: class labels come from recorded photoluminescence quantum yield, ranges listed here: lo: < 0.07; mid: ≥ 0.07 and < 0.4; hi: ≥ 0.4

These solved cases illustrate the format of a correct answer.
molecule	assigned-label
CC1(C)C(/C=C/C2=C(Cl)C(=C/C=C3/N(CCCCCC(=O)O)c4ccccc4C3(C)C)/CCC2)=[N+](CCCCCC(=O)O)c2ccccc21	mid
Nc1cc2oc3cc(O)c(F)cc3c(=O)c2cc1F	hi
CC[N+](CC)=c1ccc2c(-c3ccccc3C(=O)O)c3oc4cc(N)ccc4c3oc-2c1	hi
CNc1cccc2c1-c1ccccc1C2=O	lo
C#Cc1ccc2cc3c(C)cc(=O)oc3cc2c1	lo

Exercise: For this molecule, which bin applies? CN(C)c1ccc2c(c1)-c1ccccc1C2=O
Key: lo

Exercise: # bin label for CN1/C(=C/C=C(/C=C/c2sc3ccccc3[n+]2C)c2ccccc2)Sc2ccccc21
Key: lo

Exercise: Which class is correct for the following molecule? CCN(CC)c1ccc(-c2cc3c(s2)c(C(=O)OC)cc(=O)n3C)cc1
Key: lo

Exercise: The entry to classify is CCN(CC)c1ccc2c(-c3ccccc3C(=O)O)c3c([o+]c2c1)/C(=C/Nc1ccccc1)CCC3 ; which class holds it?
Key: mid

Exercise: Class (by measured photoluminescence quantum yield) for COC(=O)C(Cc1ccc2oc(-c3ccc(N(c4ccccc4)c4ccccc4)cc3)nc2c1)NC(=O)OC(C)(C)C (stereo unspecified)
Key: hi

Exercise: Form: Item = COc1ccc(-c2cc3ccc4cc(-c5ccc(OC)cc5)cc5ccc(c2)c3c45)cc1 ; Class = ?
Key: mid

Exercise: Please indicate the class for Cc1cc(N(C)C)cc(C)c1/C=C/C=C/c1ccc(C#N)cc1 based on its photoluminescence quantum yield.
Key: mid

Exercise: Class for COc1ccc(C(=O)OCc2c(C)c(=O)n3c(=O)c(C)c(C)n23)cc1 ?
Key: hi

Exercise: Hey, which category is CN(C)c1ccc(C=C/C=C/C=C/c2ccc(C#N)cc2)cc1 in, do you know?
Key: mid

----------
test: photoluminescence quantum yield (fraction); solvent given as SMILES; conditions: in CC#N
Decide by photoluminescence quantum yield: equal to or exceeding 0.05 means class 1, less means class 0.

Previously resolved entries follow.
compound	assigned-label
CCN(CC)c1ccc(-c2nc3cc(C(NC(=O)OC(C)(C)C)C(=O)OC)ccc3o2)c(O)c1 (stereo not drawn)	class 1
CC(=O)c1nc(-c2ccc(N(C)C)cc2)oc1C	class 0
Clc1ccc(/C=C/c2ccc(-c3nc4c5cccnc5c5ncccc5c4[nH]3)cc2)cc1	class 1
CN1C(=O)/C(=C/c2ccncc2)N=C1/C=C/c1ccncc1	class 0
CC(=O)[B-]1(C(C)=O)OC(c2ccccc2)=CC(c2ccc3ccccc3c2)=[O+]1	class 1
COc1nc(Nc2cc3ccc4cccc5ccc(c2)c3c45)nc(OC)n1	class 1
COc1nc(Nc2ccc3ccc4cccc5ccc2c3c45)nc(OC)n1	class 1
Cc1cc(N(C)C)cc(C)c1/C=C/C=C/c1ccc(C#N)cc1	class 1

Exercise: hey, is photoluminescence quantum yield for this one >= 0.05? CCC1=C(C)C2=C(c3c4ccccc4c(C)c4ccccc34)c3c(C)c(CC)c(C)n3[B-](F)(F)[N+]2=C1C
Key: class 1

Exercise: Would you say C[C@@]12SC(Cl)=CC1=c1nc(-c3ccccc3)[nH]c1=C1C=C(Cl)S[C@]12C shows photoluminescence quantum yield at minimum 0.05?
Key: class 0

Exercise: Kindly determine if photoluminescence quantum yield recorded for N#Cc1nc2cnc(N)nc2n1Cc1ccccc1 is above or exactly 0.05.
Key: class 1

Exercise: Does photoluminescence quantum yield meet or surpass 0.05 for COc1ccc2ncccc2c1 ?
Key: class 1

Exercise: Item COc1ccc2c(c1)C(=O)c1ccccc1-2 with photoluminescence quantum yield of 0.05 or above?
Key: class 0

Exercise: photoluminescence quantum yield >= 0.05 for CN(c1ccccc1)c1ccc(/C=C2\C(=O)c3ccccc3S2(=O)=O)cc1 ?
Key: class 0
